Molecular target: human DLL4 protein (Acro, Cat. No. DL4-H5227) (human) (UniProt Q9NR61)
Sequence (Q9NR61 27-524 limits assumed): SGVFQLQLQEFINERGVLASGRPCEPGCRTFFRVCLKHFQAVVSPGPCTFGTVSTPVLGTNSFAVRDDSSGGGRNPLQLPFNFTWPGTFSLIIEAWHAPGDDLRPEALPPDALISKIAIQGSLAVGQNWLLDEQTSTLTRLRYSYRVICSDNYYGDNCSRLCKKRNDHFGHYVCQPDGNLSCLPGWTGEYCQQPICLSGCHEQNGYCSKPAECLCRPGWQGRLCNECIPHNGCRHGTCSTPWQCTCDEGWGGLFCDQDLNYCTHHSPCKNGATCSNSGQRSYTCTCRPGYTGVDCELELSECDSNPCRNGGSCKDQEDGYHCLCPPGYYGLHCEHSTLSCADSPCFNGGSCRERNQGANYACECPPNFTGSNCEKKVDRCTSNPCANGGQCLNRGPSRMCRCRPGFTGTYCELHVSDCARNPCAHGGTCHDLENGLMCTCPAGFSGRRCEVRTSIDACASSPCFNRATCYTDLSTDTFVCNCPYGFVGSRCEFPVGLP
Assay: ELISA, coated hDLL4; maximum over 0.1, 1, 10, 100 nM antibody
QUANTITY NAME: Emax of OD450 nm binding value (OD450 nm)

BINDER: Hab015VL5VH1b-hFc (scFv, part only; not given: VL-VH linker and human IgG1 Fc, V domains shown, not shown: another chain or arm of the molecule; a dimerising Fc or GST; small tags and cut ends) VL: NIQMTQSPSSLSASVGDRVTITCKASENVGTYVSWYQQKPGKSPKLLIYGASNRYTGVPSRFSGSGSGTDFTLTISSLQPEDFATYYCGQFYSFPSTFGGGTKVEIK VH: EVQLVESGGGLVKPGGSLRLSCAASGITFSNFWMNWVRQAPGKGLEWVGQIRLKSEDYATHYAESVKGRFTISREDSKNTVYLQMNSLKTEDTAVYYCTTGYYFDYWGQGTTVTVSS
QUANTITY NAME: Emax of OD450 nm binding value
ASSAY VALUE: 0.67
